Data provenance is paper PMC12597549.

- system_tested: UGT2B7^268His (Homo sapiens, UniProt P16662, Y268H)
- Construct: expressed in transfected cells; microsomal membrane fraction
- Sequence (P16662 24-529 Y268H): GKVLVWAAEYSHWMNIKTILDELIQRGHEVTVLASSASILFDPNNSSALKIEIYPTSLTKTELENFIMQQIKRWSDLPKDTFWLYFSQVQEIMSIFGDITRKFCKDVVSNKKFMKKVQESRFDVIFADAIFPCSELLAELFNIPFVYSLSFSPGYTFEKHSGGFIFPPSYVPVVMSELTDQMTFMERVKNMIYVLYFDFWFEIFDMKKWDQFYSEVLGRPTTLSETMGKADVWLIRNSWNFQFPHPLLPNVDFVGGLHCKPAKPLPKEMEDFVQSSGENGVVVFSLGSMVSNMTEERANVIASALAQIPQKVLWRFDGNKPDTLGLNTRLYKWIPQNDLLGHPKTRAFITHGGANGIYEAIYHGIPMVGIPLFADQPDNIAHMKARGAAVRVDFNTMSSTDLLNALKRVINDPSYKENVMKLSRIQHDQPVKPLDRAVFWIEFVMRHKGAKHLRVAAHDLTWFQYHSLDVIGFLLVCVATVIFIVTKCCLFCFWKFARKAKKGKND
- method: Inhibition of hydromorphone glucuronidation (HM3G formation) by cannabinoids in rUGT2B7^268His microsomes
- Type: biochemical
- test_context: 100 μM cannabinoid, 400 μM hydromorphone, 2% BSA, vs vehicle control
result_type: inhibition of HM3G formation

>>> result("C=C(C)[C@@H]1CCC(CO)=C[C@H]1c1c(O)cc(CCCCC)cc1O [7-OH-CBD, 7-hydroxycannabidiol]")
"82%"
>>> result("C=C(C)[C@@H]1CCC(C(=O)O)=C[C@H]1c1c(O)cc(CCCCC)cc1O")
"60%"
>>> result("CCCCCc1cc(O)c2c(c1)OC(C)(C)[C@@H]1CCC(C)=C[C@@H]21 [THC, Δ^9-tetrahydrocannabinol, reference compound]")
"67%"
>>> result("CCCCCc1cc(O)c2c(c1)OC(C)(C)[C@@H]1CCC(C(=O)O)=C[C@@H]21")
"49%"

---

- method: Estimated maximum unbound hepatic inlet plasma concentrations of cannabinoids after oral or inhaled THC or CBD
- Parameters: species or system human
- test_context: THC 100 mg inhalation; doses and Cmax from Bansal et al., 2022; read-out: Cmax,hepatic inlet,u
Listing of entries alongside the reported Cmax.
result_type: Cmax

>>> result("CCCCCc1cc(O)c2c(c1)OC(C)(C)[C@@H]1CCC(C)=C[C@@H]21 [THC, Δ^9-tetrahydrocannabinol, reference compound]")
"990 nM"
>>> result("CCCCCc1cc(O)c2c(c1)OC(C)(C)[C@@H]1CCC(C(=O)O)=C[C@@H]21 [11-COOH-THC, 11-nor-9-carboxy (COOH)-Δ^9-THC]")
"260 nM"

---

- system_tested: UGT2B7 (Homo sapiens, UniProt P16662)
- method: Inhibition of UGT2B7-mediated hydromorphone glucuronidation by cannabinoids in pooled HLM (screening, IC50, Ki, inhibition type)
- Assay type: biochemical
- test_context: human, pooled human liver microsomes, probe hydromorphone 400 μM (HM3G formation)
pIC50: −log10 of the molar value.
result_type: pIC50

>>> numeric_value("C=C(C)[C@@H]1CCC(C)=C[C@H]1c1c(O)cc(CCCCC)cc1O")
6.85

---

- system_tested: UGT2B7^268Tyr (Homo sapiens, UniProt P16662)
- method: in vitro
result_type: inhibition at 100 μM (%)

>>> numeric_value("C=C(C)[C@@H]1CCC(C)=C[C@H]1c1c(O)cc(CCCCC)cc1O [CBD, cannabidiol]")
96

---

- method: Estimated maximum unbound hepatic inlet plasma concentrations of cannabinoids after oral or inhaled THC or CBD
- Design: species or system human
- test_context: THC 20 mg oral; doses and Cmax from Bansal et al., 2022; read-out: Cmax,hepatic inlet,u
Listing of entries alongside the reported Cmax.
result_type: Cmax (nM)

>>> numeric_value("CCCCCc1cc(O)c2c(c1)OC(C)(C)[C@@H]1CCC(C)=C[C@@H]21 [THC, Δ^9-tetrahydrocannabinol, reference compound]")
30
>>> numeric_value("CCCCCc1cc(O)c2c(c1)OC(C)(C)[C@@H]1CCC(C(=O)O)=C[C@@H]21")
190

---

- system_tested: UGT2B7^268Tyr (Homo sapiens)
- test_context: read-out: IC50,u; rUGT2B7^268Tyr microsomes; IC50 corrected for nonspecific binding (fu,inc from refs 32,33; 11-OH-THC fu,inc as surrogate for 7-OH-CBD); mean ± SD
result_type: IC50 (nM)

>>> numeric_value("C=C(C)[C@@H]1CCC(CO)=C[C@H]1c1c(O)cc(CCCCC)cc1O [7-OH-CBD, 7-hydroxycannabidiol]")
1260

---

- method: Estimated maximum unbound hepatic inlet plasma concentrations of cannabinoids after oral or inhaled THC or CBD
- Parameters: species or system human
- test_context: THC 130 mg oral; doses and Cmax from Bansal et al., 2022; read-out: Cmax,hepatic inlet,u
result_type: Cmax (µM)

>>> numeric_value("CCCCCc1cc(O)c2c(c1)OC(C)(C)[C@@H]1CCC(C)=C[C@@H]21 [THC, Δ^9-tetrahydrocannabinol, reference compound]")
0.2
>>> numeric_value("CCCCCc1cc(O)c2c(c1)OC(C)(C)[C@@H]1CCC(C(=O)O)=C[C@@H]21")
1.22

---

Listing of entries alongside the reported Cmax.
- method: Estimated maximum unbound hepatic inlet plasma concentrations of cannabinoids after oral or inhaled THC or CBD
- Set-up: species or system human
- test_context: THC 70 mg inhalation; doses and Cmax from Bansal et al., 2022; read-out: Cmax,hepatic inlet,u
- Excerpt: [I]h is the inhibitor concentration in the liver and is defined as follows:(7) [I]h=fu,p×(Cmax+Fa×Fg×Ka×Dose/Qh×Rb) where fu,p is the unbound fraction of inhibitor in plasma, and Cmax is the maximal total (free and bound) inhibitor concentration in the plasma.
result_type: Cmax (nM)

>>> numeric_value("CCCCCc1cc(O)c2c(c1)OC(C)(C)[C@@H]1CCC(C(=O)O)=C[C@@H]21")
180
>>> numeric_value("CCCCCc1cc(O)c2c(c1)OC(C)(C)[C@@H]1CCC(C)=C[C@@H]21 [THC, Δ^9-tetrahydrocannabinol, reference compound]")
690

---

- system_tested: UGT2B7^268His (Homo sapiens, UniProt P16662, Y268H)
- Construct: expressed in transfected cells; microsomal membrane fraction
- method: Inhibition of hydromorphone glucuronidation (HM3G formation) by cannabinoids in rUGT2B7^268His microsomes
- Assay type: biochemical
- test_context: IC50 corrected for nonspecific binding (fu,inc from refs 32,33; 11-OH-THC fu,inc as surrogate for 7-OH-CBD and 7-COOH-CBD), mean ± SD
result_type: IC50 (nM)

>>> numeric_value("C=C(C)[C@@H]1CCC(C(=O)O)=C[C@H]1c1c(O)cc(CCCCC)cc1O [7-COOH-CBD]")
5540
>>> numeric_value("C=C(C)[C@@H]1CCC(CO)=C[C@H]1c1c(O)cc(CCCCC)cc1O [7-OH-CBD, 7-hydroxycannabidiol]")
1390
>>> numeric_value("CCCCCc1cc(O)c2c(c1)OC(C)(C)[C@@H]1CCC(C)=C[C@@H]21 [THC, Δ^9-tetrahydrocannabinol, reference compound]")
2920

---

Listing of entries alongside the reported inhibition of HM3G formation.
- system_tested: UGT2B7^268Tyr (Homo sapiens, UniProt P16662)
- Sequence (P16662 24-529): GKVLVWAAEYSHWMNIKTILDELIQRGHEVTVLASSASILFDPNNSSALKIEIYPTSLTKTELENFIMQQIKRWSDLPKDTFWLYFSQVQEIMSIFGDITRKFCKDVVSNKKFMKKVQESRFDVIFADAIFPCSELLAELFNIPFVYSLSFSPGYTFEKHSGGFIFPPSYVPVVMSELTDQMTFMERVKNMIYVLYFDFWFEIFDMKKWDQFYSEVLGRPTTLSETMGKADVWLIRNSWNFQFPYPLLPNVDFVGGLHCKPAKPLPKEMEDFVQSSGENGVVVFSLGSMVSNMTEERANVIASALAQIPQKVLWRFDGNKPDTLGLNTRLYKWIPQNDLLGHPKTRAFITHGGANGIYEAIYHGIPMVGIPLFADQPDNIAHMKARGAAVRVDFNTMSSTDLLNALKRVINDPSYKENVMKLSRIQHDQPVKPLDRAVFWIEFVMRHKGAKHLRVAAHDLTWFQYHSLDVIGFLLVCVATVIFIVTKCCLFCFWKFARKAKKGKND
- test_context: 100 μM cannabinoid; 400 μM hydromorphone; 2% BSA; rUGT2B7^268Tyr microsomes; vs vehicle control
result_type: inhibition of HM3G formation (%)

>>> numeric_value("CCCCCc1cc(O)c2c(c1)OC(C)(C)[C@@H]1CCC(C)=C[C@@H]21 [THC, Δ^9-tetrahydrocannabinol, reference compound]")
45
>>> numeric_value("C=C(C)[C@@H]1CCC(C(=O)O)=C[C@H]1c1c(O)cc(CCCCC)cc1O")
41
>>> numeric_value("CCCCCc1cc(O)c2c(c1)OC(C)(C)[C@@H]1CCC(C(=O)O)=C[C@@H]21")
27
>>> numeric_value("C=C(C)[C@@H]1CCC(CO)=C[C@H]1c1c(O)cc(CCCCC)cc1O [7-OH-CBD, 7-hydroxycannabidiol]")
77
